B1: HDV Ribozyme (parent)
chain: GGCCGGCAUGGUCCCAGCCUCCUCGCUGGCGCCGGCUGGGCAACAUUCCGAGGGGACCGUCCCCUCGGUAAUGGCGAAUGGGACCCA

Variants of: B1
Test name: self-cleavage, relative activity (ratio to wild type); higher = more cleavage; co-transcriptional
Give t when the value for self-cleavage is at least 0.2. Give f when it is less.

Chain | Label value
GGCCGGCAUGGUCCCAGCCUCCUCGCUGGCGCCGGCUGGGCAACAUUCUGAGGGGACCGUCCCCUCGGUAAUGGCGAAUGGGACUCA | t

Check this variant for self-cleavage at or above 0.2: GGCCGGCAUGGUCCCAGCCUCCUCGCUGGCGCCGGCUGGGCAACAUUCAGAGGGGACCGUCCCCUCGGUAAUGGCUAAUGGGACCCA t

Check this variant for self-cleavage at or above 0.2: GACCGGCAUGGUCCCAGCCUCCUCACUGGCGCCGGCUGGGCAACAUUCCGAGGGGACCGUCCCCUCGGUAAUGGCGAAUGGGACCCA f

Check this variant for self-cleavage at or above 0.2: GGCCGGCAUGGUCCCAGCCUCCUCGCGGGCGCCGGCUGGGCAACAUUCCGAGGGGACCAUCCCCUCGGUAAUGGCGAAUGGGACCCA t

Check this variant for self-cleavage at or above 0.2: GGCCGACAUGGUCCCAGCCUCCUCGCUGGCGCCGGCUGGGCAACAUUCCGAGGGGACCGUCCCCUGGGUAAUGGCGAAUGGGACCCA t

Check this variant for self-cleavage at or above 0.2: GGCCGGCAUGGUCCCAGCCUCCUCGCUGGCGCCCGCUGGGCAACAUUCCGAGGGGACCGUCCCCUCGGUAAUGGCGAAUGGAACCCA f

Check this variant for self-cleavage at or above 0.2: GGCCGACAUGGUCCCAGCCUCCUCGCUGGUGCCGGCUGGGCAACAUUCCGAGGGGACCGUCCCCUCGGUAAUGGCGAAUGGGACCCA t

Check this variant for self-cleavage at or above 0.2: GUCCGGCAUGGUCCCAGCCUCCUCGCUGGCGCCGGCUGGGCAACAUUCCGAGGGGACCGUCACCUCGGUAAUGGCGAAUGGGACCCA f

Check this variant for self-cleavage at or above 0.2: GGCCGGCAUGGUCCCAGCCUCCUCGCUGGCGCCAGCUGGGCAACAUUCCGGGGGGACCGUCCCCUCGGUAAUGGCGAAUGGGACCCA f

Check this variant for self-cleavage at or above 0.2: GGCCGGCAUGGUCCCAGCCUCCUCGCUGCCGCCGGCUGGGCAACAUUCCGAGGGGACCGUCCCCUCCGUAAUGGCGAAUGGGACCCA f

Check this variant for self-cleavage at or above 0.2: GGCCGGCCUGAUCCCAGCCUCCUCGCUGGCGCCGGCUGGGCAACAUUCCGAGGGGACCGUCCCCUCGGUAAUGGCGAAUGGGACCCA t

Check this variant for self-cleavage at or above 0.2: GGCCGGCAUGGUCCCAGCCUCCUCGCUGGCGCCGGCUGGGCAACAUUCCGAGGGGACCGUCCCCUCGGUAAGGGCGAAUAGGACCCA f

Check this variant for self-cleavage at or above 0.2: GGCCUGCAUGGUCCCAGCCUCCUCGCUGGCGCCGGCUGGGCAACAUUCCGAGGGGACCGGCCCCUCGGUAAUGGCGAAUGGGACCCA f
